Every entry's value here was drawn from patent US8759500B2.

conditions: female, Balb/c, mouse, in vivo, po, 10 mg/kg
Property measured: Tmax (h)

CC[C@H]1OC(=O)[C@@](C)(F)C(=O)[C@H](C)[C@@H](O[C@@H]2O[C@H](C)C[C@H](N(C)C)[C@H]2O)[C@](C)(OC)C[C@@H](C)C(=O)[C@H](C)[C@H]2N(CCCCn3cc(-c4cccc(N)c4)nn3)C(=O)O[C@]12C [Form I, solithromycin] ... 2.4

###

experiment: Oral pharmacokinetics in Balb/c mice, single dose 20 or 100 mg/kg; details: female, Balb/c, mouse, plasma, po, 100 mg/kg
Property measured: concentration at 2 h (ng/mL)

CC[C@H]1OC(=O)[C@@](C)(F)C(=O)[C@H](C)[C@@H](O[C@@H]2O[C@H](C)C[C@H](N(C)C)[C@H]2O)[C@](C)(OC)C[C@@H](C)C(=O)[C@H](C)[C@H]2N(CCCCn3cc(-c4cccc(N)c4)nn3)C(=O)O[C@]12C [Form II, solithromycin] ... 9500

###

assay: Further oral pharmacokinetic study in female Balb/c mice, 5, 10 and 20 mg/kg; conditions: mouse, plasma, 5 mg/kg, t½, Median, 5 mg/kg single oral dose
Property measured: half-life (h)

CC[C@H]1OC(=O)[C@@](C)(F)C(=O)[C@H](C)[C@@H](O[C@@H]2O[C@H](C)C[C@H](N(C)C)[C@H]2O)[C@](C)(OC)C[C@@H](C)C(=O)[C@H](C)[C@H]2N(CCCCn3cc(-c4cccc(N)c4)nn3)C(=O)O[C@]12C [Form II, solithromycin] ... 1.12

###

assay: Oral pharmacokinetics in Balb/c mice, single dose 20 or 100 mg/kg; conditions: male, Balb/c, mouse, plasma, po, 20 mg/kg
Property measured: Cmax (ng/mL)

CC[C@H]1OC(=O)[C@@](C)(F)C(=O)[C@H](C)[C@@H](O[C@@H]2O[C@H](C)C[C@H](N(C)C)[C@H]2O)[C@](C)(OC)C[C@@H](C)C(=O)[C@H](C)[C@H]2N(CCCCn3cc(-c4cccc(N)c4)nn3)C(=O)O[C@]12C [Form II, solithromycin] ... 6730

###

experiment: in vivo; details: female, Balb/c, mouse, po, 20 mg/kg
Property measured: Cmax (ng/mL)

CC[C@H]1OC(=O)[C@@](C)(F)C(=O)[C@H](C)[C@@H](O[C@@H]2O[C@H](C)C[C@H](N(C)C)[C@H]2O)[C@](C)(OC)C[C@@H](C)C(=O)[C@H](C)[C@H]2N(CCCCn3cc(-c4cccc(N)c4)nn3)C(=O)O[C@]12C [Form I, solithromycin] ... 13600

###

assay: Oral pharmacokinetics in Balb/c mice, single dose 20 or 100 mg/kg; conditions: female, Balb/c, mouse, plasma, po, 20 mg/kg
Property measured: concentration at 2 h (ng/mL)

CC[C@H]1OC(=O)[C@@](C)(F)C(=O)[C@H](C)[C@@H](O[C@@H]2O[C@H](C)C[C@H](N(C)C)[C@H]2O)[C@](C)(OC)C[C@@H](C)C(=O)[C@H](C)[C@H]2N(CCCCn3cc(-c4cccc(N)c4)nn3)C(=O)O[C@]12C [Form II, solithromycin] ... 6100

###

experiment: in vivo; details: male, Balb/c, mouse, po, 20 mg/kg
Property measured: concentration at 1 h (ng/mL)

CC[C@H]1OC(=O)[C@@](C)(F)C(=O)[C@H](C)[C@@H](O[C@@H]2O[C@H](C)C[C@H](N(C)C)[C@H]2O)[C@](C)(OC)C[C@@H](C)C(=O)[C@H](C)[C@H]2N(CCCCn3cc(-c4cccc(N)c4)nn3)C(=O)O[C@]12C [Form I, solithromycin] ... 9500
